Data origin, for the record: patent US11390631B1

# Assay summary: Cytotoxicity on parallel plate without virus, ATPlite readout
# Assay type: cell-based
# Condition parameters: human, Hep-2 cells (no virus), Hep-2 cells without virus, 5-day incubation
I'd be grateful if you could share measured CC50 at 5 days for these entries.

Endpoint output: CC50 at 5 days of O=C1Nc2ccccc2C(c2ccccc2)=NC1Nc1nnc(Cc2ccccc2)o1 (stereo not drawn) [Example 22] . Value? > 50 µM

I am curious: what CC50 at 5 days value has been reported for O=C1Nc2ccccc2C(c2ccccc2)=NC1Nc1nnc(-c2ccccc2)s1 (stereo not drawn) [Example 81] ? > 50 µM

Reported CC50 at 5 days, compound O=C1Nc2ccccc2C(c2ccccc2)=NC1Nc1nc(-c2ccccc2)no1 (stereo not drawn) [Example 89] : ____ 10 to 50 µM

Which CC50 at 5 days is reported for this compound? N#Cc1ccc(-c2nnc(NC3N=C(c4ccccc4)c4ccccc4NC3=O)o2)cc1 (stereo not drawn) [Example 12] > 50 µM

GET /values?readout=CC50 at 5 days&item= O=C1Nc2ccccc2C(c2ccccc2)=NC1Nc1nnc(-c2ccnc(F)c2)o1 (stereo not drawn) [Example 55] > 50 µM

Recorded CC50 at 5 days for Cn1nccc1-c1nnc(NC2N=C(c3ccccc3)c3ccccc3NC2=O)o1 (stereo not drawn) [Example 65] , please? > 50 µM

What does the data say about its CC50 at 5 days? Entry: Cn1cnc(-c2nnc(NC3N=C(c4ccccc4)c4ccccc4NC3=O)o2)c1 (stereo not drawn) [Example 68] > 50 µM

Any idea what CC50 at 5 days was measured for COc1ccc(-c2nnc(NC3N=C(c4ccccc4)c4ccccc4NC3=O)o2)cn1 (stereo not drawn) [Example 54] ? > 50 µM

Would you mind telling me what CC50 at 5 days value was observed for O=C1Nc2ccccc2C(c2ccccc2)=NC1Nc1nc2ccccc2o1 (stereo not drawn) [Example 100] ? 10 to 50 µM
